Field: concentration at 3 h. Provide a value for each of the molecules that follow.
assay: Tissue concentrations of Formula I and its metabolites in Göttingen pigs after a single oral or intravenous dose (LC-MS/MS); format: in vivo; conditions: both sexes, Göttingen, pig (minipig); liver; single oral dose of Formula I 125 mg/kg; 3 hpd; read-out: Tissue concentration, liver
Entry format: amount then unit.

Past entries and their recorded results:
C[C@H](NP(=O)(O)OC[C@H]1O[C@@H](n2ccc(=O)[nH]c2=S)C(C)(O)C1O)C(=O)O (stereo in doubt) [Formula II] : 12400 ng/g
C[C@@]1(O)[C@H](O)[C@@H](CO)O[C@H]1n1ccc(=O)[nH]c1=S [Formula VI] : 18200 ng/g

Switching to the query record.
What value of measured concentration at 3 h is listed for CC1(O)[C@@H](O)[C@@H](COP(=O)(O)OP(=O)(O)OP(=O)(O)O)O[C@H]1n1ccc(=O)[nH]c1=S (stereo partly drawn) [Formula V] ?
6670 ng/g

----------
assay: Tissue concentrations of Formula I and its metabolites in Göttingen pigs after a single oral or intravenous dose (LC-MS/MS); assay type: in vivo; conditions: both sexes, Göttingen, pig (minipig); lung; single oral dose of Formula I 125 mg/kg; 3 hpd; read-out: Tissue concentration, lung
Field: concentration at 3 h. Provide a value for each of the compounds that follow.
Numbers only, in ng/g.

For each of the compounds below, note its concentration at 3 h.
1. C[C@@]1(O)[C@H](O)[C@@H](CO)O[C@H]1n1ccc(=O)[nH]c1=S [Formula VI]
2. C[C@H](NP(=O)(O)OC[C@H]1O[C@@H](n2ccc(=O)[nH]c2=S)C(C)(O)C1O)C(=O)O (stereo in doubt) [Formula II]
3. CC1(O)[C@@H](O)[C@@H](COP(=O)(O)OP(=O)(O)OP(=O)(O)O)O[C@H]1n1ccc(=O)[nH]c1=S (stereo partly shown) [Formula V]

[3580, 1630, 170]

What value of measured concentration at 3 h is listed for CC1(O)[C@@H](O)[C@@H](COP(=O)(O)O)O[C@H]1n1ccc(=O)[nH]c1=S (stereo partly shown) [Formula III] ?
303

----------
assay: Tissue concentrations of Formula I and its metabolites in Göttingen pigs after a single oral or intravenous dose (LC-MS/MS); type: in vivo; settings: both sexes, Göttingen, pig (minipig); kidney; single oral dose of Formula I 125 mg/kg; 3 hpd; read-out: Tissue concentration, kidney
Recorded Endpoint: concentration at 3 h
Entry format: amount then unit.

CC1(O)[C@@H](O)[C@@H](COP(=O)(O)O)O[C@H]1n1ccc(=O)[nH]c1=S (stereo partly shown) : 14100 ng/g

For each of the compounds below, note its concentration at 3 h.
1. C[C@@]1(O)[C@H](O)[C@@H](CO)O[C@H]1n1ccc(=O)[nH]c1=S
2. CC1(O)[C@@H](O)[C@@H](COP(=O)(O)OP(=O)(O)OP(=O)(O)O)O[C@H]1n1ccc(=O)[nH]c1=S (stereo partly shown)
3. C[C@H](NP(=O)(O)OC[C@H]1O[C@@H](n2ccc(=O)[nH]c2=S)C(C)(O)C1O)C(=O)O (stereo in doubt)

1. 29400 ng/g
2. 613 ng/g
3. 10300 ng/g

----------
Field: concentration at 3 h. Provide a value for each of the molecules that follow.
experiment: Tissue concentrations of Formula I and its metabolites in Göttingen pigs after a single oral or intravenous dose (LC-MS/MS); assay type: in vivo; conditions: both sexes, Göttingen, pig (minipig); liver; single oral dose of Formula I 125 mg/kg; 3 hpd; read-out: Tissue concentration in Göttingen pig liver (Table 7)
One number for each entry, in µM.

Past entries and their recorded results:
CC1(O)[C@@H](O)[C@@H](COP(=O)(O)OP(=O)(O)OP(=O)(O)O)O[C@H]1n1ccc(=O)[nH]c1=S (stereo partly drawn) : 12.9
C[C@@]1(O)[C@H](O)[C@@H](CO)O[C@H]1n1ccc(=O)[nH]c1=S : 66.3

Switching to the query record.
What value of measured concentration at 3 h is listed for C[C@H](NP(=O)(O)OC[C@H]1O[C@@H](n2ccc(=O)[nH]c2=S)C(C)(O)C1O)C(=O)O (stereo in doubt) ?
29.2
